Some compounds, each annotated with its measured pEC50.
Target: human calcium-sensing receptor (CaSR) (Homo sapiens, UniProt P41180)
Construct: expressed in transfected cells; host or cells: HEK 293T cells, transiently transfected (lipofectamine 2000); in some cases HEK293 cells stably transfected
Experiment: In vitro cell assay in HEK-293 expressing the human calcium-sensing receptor (IP1 production)
Format: cell-based
Conditions: Table 1; IP1 in HEK293 cells expressing human CaSR; read-out: In vitro EC50
Square brackets hold non-standard residues; d marks the D form. Peptide text beside a SMILES is read from it.
Scale note: pEC50 = -log10(concentration in M).

Sample records with pEC50:
CC(=O)N[C@H](CS)C(=O)N[C@H](CCCNC(=N)N)C(=O)N[C@H](C)C(=O)N[C@H](CCCNC(=N)N)C(=O)N[C@H](CCCNC(=N)N)C(=O)N[C@H](CCCNC(=N)N)C(=O)N[C@H](CCCNC(=N)N)C(N)=O [SEQ ID NO: 9, Ac-crarrrr-NH2] (Ac-[dC][dR][dA][dR][dR][dR][dR]-NH2) ... 6.00
CC(=O)N[C@H](CS)C(=O)N[C@H](CCCNC(=N)N)C(=O)N[C@H](CCCNC(=N)N)C(=O)N[C@H](CCCNC(=N)N)C(=O)N[C@H](CCCNC(=N)N)C(=O)N[C@H](CCCNC(=N)N)C(=O)N[C@H](CCCNC(=N)N)C(N)=O [SEQ ID NO: 6, Ac-crrrrrr-NH2] ... 6.30

Lab note: need pEC50 with human calcium-sensing receptor (CaSR) (Homo sapiens, UniProt P41180) for entry CC(=O)N[C@H](CS)C(=O)N[C@H](CCCNC(=N)N)C(=O)N[C@H](CCCNC(=N)N)C(=O)N[C@H](CCCNC(=N)N)C(=O)N[C@H](C)C(=O)N[C@H](CCCNC(=N)N)C(=O)N[C@H](CCCNC(=N)N)C(N)=O [SEQ ID NO: 11, Ac-crrrarr-NH2] (Ac-[dC][dR][dR][dR][dA][dR][dR]-NH2) , please look it up.
5.23

For CC(=O)N[C@H](CS)C(=O)N[C@H](C)C(=O)N[C@H](CCCNC(=N)N)C(=O)N[C@H](CCCNC(=N)N)C(=O)N[C@H](CCCNC(=N)N)C(=O)N[C@H](CCCNC(=N)N)C(=O)N[C@H](CCCNC(=N)N)C(N)=O [SEQ ID NO: 8, Ac-carrrrr-NH2] (Ac-[dC][dA][dR][dR][dR][dR][dR]-NH2) then?
5.96

----------
System: rat peritoneal mast cells
Test: In vitro histamine induction in rat peritoneal mast cells
Format: cell-based
Square brackets hold non-standard residues; d marks the D form. Peptide text beside a SMILES is read from it. dNva = CCC[C@@H](N)C(=O)O
Measure: Histamine in vitro Fold change of non-treated at 10 uM (fold)
Give the quantity in fold, number only.

Sample records with Histamine in vitro Fold change of non-treated at 10 uM:
CC(=O)N[C@H](CS)C(=O)N[C@H](CCCNC(=N)N)C(=O)N[C@H](C)C(=O)N[C@H](C)C(=O)N[C@H](CCCNC(=N)N)C(=O)N[C@H](CCCNC(=N)N)C(=O)N[C@H](CCCNC(=N)N)C(N)=O [SEQ ID NO: 24, Ac-craarrr-NH2] (Ac-[dC][dR][dA][dA][dR][dR][dR]-NH2) ... 1.0
CC(=O)N[C@H](CS)C(=O)N[C@H](CCCNC(=N)N)C(=O)N[C@H](CCCNC(=N)N)C(=O)N[C@H](CCCNC(=N)N)C(=O)N[C@H](CCCNC(=N)N)C(=O)N[C@H](CCCNC(=N)N)C(=O)N[C@H](C)C(N)=O [SEQ ID NO: 13, Ac-crrrrra-NH2] (Ac-[dC][dR][dR][dR][dR][dR][dA]-NH2) ... 4.1
CC(=O)N[C@H](CS)C(=O)N[C@H](CCC(N)=O)C(=O)N[C@H](CCCNC(=N)N)C(=O)N[C@H](CCCNC(=N)N)C(=O)N[C@H](CCCNC(=N)N)C(=O)N[C@H](C)C(=O)N[C@H](CCCNC(=N)N)C(N)=O [SEQ ID NO: 99, Ac-cqrrrar-NH2] (Ac-[dC][dQ][dR][dR][dR][dA][dR]-NH2) ... 1.9
CCC[C@@H](NC(=O)[C@@H](CCCNC(=N)N)NC(=O)[C@@H](C)NC(=O)[C@@H](CCCNC(=N)N)NC(=O)[C@@H](CCCNC(=N)N)NC(=O)[C@@H](CS)NC(C)=O)C(=O)N[C@H](CCCNC(=N)N)C(N)=O [SEQ ID NO: 135, Ac-crrar-dNva-r-NH2] (Ac-[dC][dR][dR][dA][dR][dNva][dR]-NH2) ... 1.1
CC(=O)N[C@H](CS)C(=O)N[C@H](C)C(=O)N[C@H](CCCNC(=N)N)C(=O)N[C@H](CCCNC(=N)N)C(=O)N[C@H](CCCNC(=N)N)C(=O)N[C@H](CCCNC(=N)N)C(=O)N[C@H](C)C(N)=O [SEQ ID NO: 19, Ac-carrrra-NH2] (Ac-[dC][dA][dR][dR][dR][dR][dA]-NH2) ... 1.3
CC(=O)N[C@H](CS)C(=O)N[C@H](CCCNC(=N)N)C(=O)N[C@H](CCCNC(=N)N)C(=O)N[C@H](CCCNC(=N)N)C(=O)N[C@H](C)C(=O)N[C@H](C)C(=O)N[C@H](CCCNC(=N)N)C(N)=O [SEQ ID NO: 21, Ac-crrraar-NH2] (Ac-[dC][dR][dR][dR][dA][dA][dR]-NH2) ... 1.0

// switching to the query compound
Lab note: need Histamine in vitro Fold change of non-treated at 10 uM with rat peritoneal mast cells for entry CC[C@@H](C)[C@@H](NC(=O)[C@@H](CS)NC(C)=O)C(=O)N[C@H](CCCNC(=N)N)C(=O)N[C@H](CCCNC(=N)N)C(=O)N[C@H](CCCNC(=N)N)C(=O)N[C@H](C)C(=O)N[C@H](CCCNC(=N)N)C(N)=O [SEQ ID NO: 96, Ac-cirrrar-NH2] (Ac-[dC][dI][dR][dR][dR][dA][dR]-NH2) , please look it up.
3.0

----------
Some molecules, each annotated with its measured Histamine in vitro Fold change of non-treated at 10 uM.
System: rat peritoneal mast cells
Experiment: In vitro histamine induction in rat peritoneal mast cells
Type: cell-based
Square brackets hold non-standard residues; d marks the D form. Peptide text beside a SMILES is read from it.
Give the quantity in fold, number only.

CC(=O)N[C@H](CS)C(=O)N[C@H](C)C(=O)N[C@H](CCCNC(=N)N)C(=O)N[C@H](CCCNC(=N)N)C(=O)N[C@H](CCCNC(=N)N)C(=O)N[C@H](CCC(N)=O)C(=O)N[C@H](CCCNC(=N)N)C(N)=O [SEQ ID NO: 90, Ac-carrrqr-NH2] (Ac-[dC][dA][dR][dR][dR][dQ][dR]-NH2) ... 0.9
CC(=O)N[C@H](CS)C(=O)N[C@H](C)C(=O)N[C@H](CCCNC(=N)N)C(=O)N[C@H](CCCNC(=N)N)C(=O)N[C@H](CCCNC(=N)N)C(=O)N[C@H](C)C(=O)N[C@H](CCCNC(=N)N)C(N)=O [SEQ ID NO: 26, Ac-carrrar-NH2] ... 1.4
CC(=O)N[C@H](CS)C(=O)N[C@H](C)C(=O)N[C@H](CCCNC(=N)N)C(=O)N[C@H](CCCCN)C(=O)N[C@H](CCCNC(=N)N)C(=O)N[C@H](C)C(=O)N[C@H](CCCNC(=N)N)C(N)=O [SEQ ID NO: 73, Ac-carkrar-NH2] (Ac-[dC][dA][dR][dK][dR][dA][dR]-NH2) ... 1.4

// switching to the query molecule
Could you tell me which Histamine in vitro Fold change of non-treated at 10 uM is on file for CC(=O)N[C@H](CS)C(=O)N[C@H](C)C(=O)N[C@H](CCCNC(=N)N)C(=O)N[C@H](CCCNC(=N)N)C(=O)N[C@H](CCCNC(=N)N)C(=O)N[C@H](CO)C(=O)N[C@H](CCCNC(=N)N)C(N)=O [SEQ ID NO: 92, Ac-carrrsr-NH2] (Ac-[dC][dA][dR][dR][dR][dS][dR]-NH2) ?
1.2

----------
Some compounds, each annotated with its measured EC50.
Molecular target: human calcium-sensing receptor (CaSR) (Homo sapiens, UniProt P41180)
Construct: expressed in transfected cells; host or cells: HEK 293T cells, transiently transfected (lipofectamine 2000); in some cases HEK293 cells stably transfected
Sequence (P41180 20-1078): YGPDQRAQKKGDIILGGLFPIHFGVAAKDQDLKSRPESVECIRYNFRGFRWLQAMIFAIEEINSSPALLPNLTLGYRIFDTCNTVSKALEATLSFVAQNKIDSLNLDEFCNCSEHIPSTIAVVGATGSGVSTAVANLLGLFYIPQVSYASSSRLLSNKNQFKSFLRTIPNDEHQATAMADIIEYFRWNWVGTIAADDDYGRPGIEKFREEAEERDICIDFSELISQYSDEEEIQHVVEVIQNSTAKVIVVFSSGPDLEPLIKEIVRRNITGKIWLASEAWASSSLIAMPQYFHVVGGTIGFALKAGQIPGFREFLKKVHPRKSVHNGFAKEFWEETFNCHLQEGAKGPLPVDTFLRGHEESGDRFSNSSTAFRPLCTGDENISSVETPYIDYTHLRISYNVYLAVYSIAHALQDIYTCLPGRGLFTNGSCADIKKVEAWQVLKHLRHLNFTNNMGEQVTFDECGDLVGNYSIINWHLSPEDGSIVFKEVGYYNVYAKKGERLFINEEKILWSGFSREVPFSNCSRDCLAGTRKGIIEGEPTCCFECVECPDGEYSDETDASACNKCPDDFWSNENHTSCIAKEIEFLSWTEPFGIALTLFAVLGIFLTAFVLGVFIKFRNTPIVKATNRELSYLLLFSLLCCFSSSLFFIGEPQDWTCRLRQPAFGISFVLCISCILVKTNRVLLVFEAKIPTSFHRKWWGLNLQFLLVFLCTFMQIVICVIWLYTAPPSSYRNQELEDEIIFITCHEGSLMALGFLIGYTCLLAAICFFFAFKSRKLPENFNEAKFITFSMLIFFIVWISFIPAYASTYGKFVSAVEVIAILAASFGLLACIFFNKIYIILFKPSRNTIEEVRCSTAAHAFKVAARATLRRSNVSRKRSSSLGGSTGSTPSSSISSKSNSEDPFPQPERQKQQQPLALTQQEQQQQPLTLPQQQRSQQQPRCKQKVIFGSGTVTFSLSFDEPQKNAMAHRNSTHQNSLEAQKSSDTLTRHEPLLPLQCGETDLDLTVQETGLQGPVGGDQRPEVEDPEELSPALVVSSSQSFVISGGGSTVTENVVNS
Assay: In vitro cell assay in HEK-293 expressing the human calcium-sensing receptor (IP1 production)
Type: cell-based
Details: Table 1; IP1 in HEK293 cells expressing human CaSR; read-out: In vitro EC50
Square brackets hold non-standard residues; d marks the D form. Peptide text beside a SMILES is read from it.
Give the quantity in µM, number only.

Sample records with EC50:
CC(=O)N[C@H](CS)C(=O)N[C@H](CCCNC(=N)N)C(=O)N[C@H](CCCNC(=N)N)C(=O)N[C@H](CCCNC(=N)N)C(=O)N[C@H](CCCNC(=N)N)C(=O)N[C@H](C)C(=O)N[C@H](CCCNC(=N)N)C(N)=O [SEQ ID NO: 12, Ac-crrrrar-NH2] (Ac-[dC][dR][dR][dR][dR][dA][dR]-NH2) ... 0.45
CC(=O)N[C@H](CS)C(=O)N[C@H](CCCNC(=N)N)C(=O)N[C@H](CCCNC(=N)N)C(=O)N[C@H](CCCNC(=N)N)C(=O)N[C@H](CCCNC(=N)N)C(=O)N[C@H](CCCNC(=N)N)C(=O)N[C@H](C)C(N)=O [SEQ ID NO: 13, Ac-crrrrra-NH2] (Ac-[dC][dR][dR][dR][dR][dR][dA]-NH2) ... 1.1

// switching to the query compound
Could you tell me which EC50 is on file for CC(=O)N[C@H](CS)C(=O)N[C@H](CCCNC(=N)N)C(=O)N[C@H](CCCNC(=N)N)C(=O)N[C@H](C)C(=O)N[C@H](CCCNC(=N)N)C(=O)N[C@H](CCCNC(=N)N)C(=O)N[C@H](CCCNC(=N)N)C(N)=O [SEQ ID NO: 10, Ac-crrarrr-NH2] (Ac-[dC][dR][dR][dA][dR][dR][dR]-NH2) ?
1.1
